Sourced from paper PMC2096529

Below is a list of entries, each paired with its recorded pEC50 value.
molecular target: human P2Y1 receptor (Homo sapiens, UniProt P47900); assay: Fluo-3 calcium mobilization, FLIPR, […]1 cells
Sequence (P47900 whole entry): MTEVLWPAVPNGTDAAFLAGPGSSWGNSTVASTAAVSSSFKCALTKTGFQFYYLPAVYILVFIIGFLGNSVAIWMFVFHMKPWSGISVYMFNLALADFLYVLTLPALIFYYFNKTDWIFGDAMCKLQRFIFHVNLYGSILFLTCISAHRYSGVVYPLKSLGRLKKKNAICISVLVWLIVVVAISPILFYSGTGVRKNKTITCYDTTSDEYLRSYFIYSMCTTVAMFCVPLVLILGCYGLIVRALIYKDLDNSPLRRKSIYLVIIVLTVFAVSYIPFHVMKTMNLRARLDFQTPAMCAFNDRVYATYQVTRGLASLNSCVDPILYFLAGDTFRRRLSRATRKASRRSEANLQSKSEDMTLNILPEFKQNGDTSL
Conceptually, pEC50 converts a concentration in mol/L into minus its log10.

given.smiles	pEC50
Nc1nc2c(ncn2[C@@H]2O[C@H](COP(=O)(O)OP(=O)(O)OP(=O)(O)OC[C@H]3O[C@@H](n4cnc5c(N)ncnc54)[C@H](O)[C@@H]3O)[C@@H](O)[C@H]2O)c(=O)[nH]1	6.92

Any idea what its pEC50 is? The compound is Nc1ncnc2c1ncn2[C@@H]1O[C@H](COP(=O)(O)OP(=O)(O)OP(=O)(O)OP(=O)(O)OC[C@H]2O[C@@H](n3ccc(=O)[nH]c3=O)[C@H](O)[C@@H]2O)[C@@H](O)[C@H]1O
5.32
